experimental-target: genotype 2a HCV-SGR
procedure-text: genotype 2a HCV-SGR, transient, luciferase
study-conditions: read-out: Mean EC50 ± SD, HCV-SGR Genotype 2a; transient, Huh7.5 cells, 48 h posttransfection, luciferase

| molecule | experimental-target | EC50, nM |
| --- | --- | --- |
| CSc1ccccc1C1CCCN1C(=O)C(NC(=O)NCc1ccc(N)cc1)c1ccccc1 (stereo not shown) [Compound C31] | genotype 2a HCV-SGR | 2300 |

###

experimental-target: CypA PPIase activity (Homo sapiens)
Sequence (P62937 whole entry): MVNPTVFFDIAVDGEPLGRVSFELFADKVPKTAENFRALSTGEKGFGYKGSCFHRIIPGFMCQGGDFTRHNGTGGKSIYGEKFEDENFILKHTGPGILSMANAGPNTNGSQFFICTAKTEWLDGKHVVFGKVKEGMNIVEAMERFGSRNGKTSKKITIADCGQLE
endpoint-label: IC50 (nM)

| compound | units-symbol | observed |
| --- | --- | --- |
| CSc1ccccc1C1CCCN1C(=O)C(C)NC(=O)NCc1ccc(N)cc1 (stereo not shown) | nM | 3080 |
| Nc1ccc(CNC(=O)NCC(=O)N2CCCC2c2cccc3ccccc23)cc1 (stereo not shown) | nM | 1490 |
| COc1ccccc1C1CCCN1C(=O)CNC(=O)NCc1ccc(N)cc1 (stereo not shown) | nM | 5030 |
| CSc1ccccc1C1CCCN1C(=O)C(NC(=O)NCc1ccc(N)cc1)c1ccccc1 (stereo not shown) | nM | 100 |
